Species: Rattus norvegicus
Assay: Open TG-GATES - Regimen: Single
Type: toxicity, organism-based, Sprague-Dawley
Set-up: regimen Single, gender Male, age 6 weeks
Conditions: in vivo, po, 0 mg/kg, 24 h, tissue Plasma, route gavage, dose level Control
Could you please report measured ALT for the items listed next?
Express your answer in IU/L, writing the number without its unit.

I have this compound here, COc1ccc(O)c(C(C)(C)C)c1.COc1ccc(O)cc1C(C)(C)C [BUTYLATED HYDROXYANISOLE] , and I need its recorded ALT. 40

Could you tell me which ALT is on file for Cn1cnc([N+](=O)[O-])c1Sc1ncnc2nc[nH]c12 [AZATHIOPRINE] ? 46

Would you kindly share the measured ALT for Cc1cnc(NC(=O)C2=C(O)c3ccccc3S(=O)(=O)N2C)s1 [MELOXICAM] ? 32.6

Please give the measured ALT for this compound: CS(=O)(=O)Nc1ccc([N+](=O)[O-])cc1Oc1ccccc1 [NIMESULIDE] 35

Look up ALT: O=C1NC(=O)C(c2ccccc2)(c2ccccc2)N1 [PHENYTOIN] 42.4

Recorded ALT of CNCCC(Oc1ccc(C(F)(F)F)cc1)c1ccccc1.Cl (stereo unspecified) [FLUOXETINE HYDROCHLORIDE] , please. 36.6

# ALT lookup, item C=CCO [ALLYL ALCOHOL] 35.8

Consider the compound shown here: O=C1CN(/N=C/c2ccc(-c3ccc([N+](=O)[O-])cc3)o2)C(O)=N1 [DANTROLENE] What is its recorded ALT? 33.8

For COc1ccc(Cl)cc1C(=O)NCCc1ccc(S(=O)(=O)NC(=O)NC2CCCCC2)cc1 [GLYBURIDE] , what is its reported ALT? 32.2

Form field: reported ALT of S=C=Nc1cccc2ccccc12 [1-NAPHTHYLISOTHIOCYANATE] 37.8

Item under review: Cc1cccc(Nc2cc(Cl)nc(SCC(=O)O)n2)c1C [PIRINIXIC ACID] . Reported ALT? 42.8

---

I'd be grateful if you could share measured Fbg for these entries.
Organism: Rattus norvegicus
Experiment: Open TG-GATES - Regimen: Daily Repeat
Type: toxicity, organism-based, Sprague-Dawley
Design: regimen Daily Repeat, gender Male, age 6 weeks
Details: in vivo, po, 0 mg/kg, […], tissue Blood, route gavage, dose level Control, time 7 day
Please give a number only; it is taken to be in mg/dL.

Which measured Fbg value corresponds to O=P1(N(CCCl)CCCl)NCCCO1 (stereo unspecified) [CYCLOPHOSPHAMIDE ANHYDROUS] ? 283.2

Fbg for O=C1CN(/N=C/c2ccc(-c3ccc([N+](=O)[O-])cc3)o2)C(O)=N1 ? 213

# Fbg lookup, item CS(=O)(=O)Nc1ccc([N+](=O)[O-])cc1Oc1ccccc1 [NIMESULIDE] 220

Give the measured Fbg of Cn1c(=O)c2c(ncn2C)n(C)c1=O . 342.6

Quick check: Fbg of Cc1cccc(Nc2cc(Cl)nc(SCC(=O)O)n2)c1C ? 312.6

Need Fbg of COc1ccc(O)c(C(C)(C)C)c1.COc1ccc(O)cc1C(C)(C)C [BUTYLATED HYDROXYANISOLE] , thanks. 288.2

Can you share its Fbg? I mean this molecule: Cn1cnc([N+](=O)[O-])c1Sc1ncnc2nc[nH]c12 327.8

Would you kindly share the measured Fbg for Cc1cnc(NC(=O)C2=C(O)c3ccccc3S(=O)(=O)N2C)s1 ? 216.6

Endpoint output: Fbg of O=C1NC(=O)C(c2ccccc2)(c2ccccc2)N1 . Value? 300.4

Consider the molecule shown here: COc1ccc(Cl)cc1C(=O)NCCc1ccc(S(=O)(=O)NC(=O)NC2CCCCC2)cc1 [GLYBURIDE] What is its recorded Fbg? 217.8

Given the entry C=CCO , report its measured Fbg. 227.6
